Collected Free Hemoglobin, BLOOD, 8 μg/mL values appear next to each entry.
System: erythrocyte membranes
run description: Hemolysis in whole blood (Kahn method)
Assay type: cell-based, human
Peptide text beside a SMILES is read from it. * marks the point of attachment. Myristoyl = CCCCCCCCCCCCCC(=O)*; Lauroyl = CCCCCCCCCCCC(=O)*; Decanoyl = CCCCCCCCCC(=O)*; Octanoyl = CCCCCCCC(=O)*

compound: CCCCCCCCCCCC(=O)N[C@@H](Cc1ccccc1)C(=O)N[C@@H](Cc1c[nH]c2ccccc12)C(=O)N[C@@H](CCCNC(=N)N)C(=O)N[C@@H](CCCNC(=N)N)C(=O)N[C@@H](Cc1ccccc1)C(=O)N[C@@H](Cc1c[nH]c2ccccc12)C(=O)N[C@@H](CCCNC(=N)N)C(=O)N[C@@H](CCCNC(=N)N)C(N)=O [LF11-227-C12] (Lauroyl-FWRRFWRR-NH2)
unit of measurement: mg/dL
Free Hemoglobin, BLOOD, 8 μg/mL: 2.6
--
compound: CCCCCCCCCCCCCC(=O)N1CCC[C@H]1C(=O)N[C@@H](Cc1ccccc1)C(=O)N[C@@H](Cc1c[nH]c2ccccc12)C(=O)N[C@@H](CCCNC(=N)N)C(=O)N[C@H](C(=O)N[C@@H](CCCNC(=N)N)C(=O)N[C@H](C(=O)N[C@@H](CCCNC(=N)N)C(=O)N[C@@H](CCCNC(=N)N)C(N)=O)[C@@H](C)CC)[C@@H](C)CC [LF11-322-C14] (Myristoyl-PFWRIRIRR-NH2)
unit of measurement: mg/dL
Free Hemoglobin, BLOOD, 8 μg/mL: 2.9
--
compound: CCCCCCCC(=O)N1CCC[C@H]1C(=O)N[C@@H](Cc1ccccc1)C(=O)N[C@@H](Cc1c[nH]c2ccccc12)C(=O)N[C@@H](CCCNC(=N)N)C(=O)N[C@H](C(=O)N[C@@H](CCCNC(=N)N)C(=O)N[C@H](C(=O)N[C@@H](CCCNC(=N)N)C(=O)N[C@@H](CCCNC(=N)N)C(N)=O)[C@@H](C)CC)[C@@H](C)CC [LF11-322-C8] (Octanoyl-PFWRIRIRR-NH2)
unit of measurement: mg/dL
Free Hemoglobin, BLOOD, 8 μg/mL: 2.2
--
compound: CCCCCCCCCC(=O)N1CCC[C@H]1C(=O)N[C@@H](Cc1ccccc1)C(=O)N[C@@H](Cc1c[nH]c2ccccc12)C(=O)N[C@@H](CCCNC(=N)N)C(=O)N[C@H](C(=O)N[C@@H](CCCNC(=N)N)C(=O)N[C@H](C(=O)N[C@@H](CCCNC(=N)N)C(=O)N[C@@H](CCCNC(=N)N)C(N)=O)[C@@H](C)CC)[C@@H](C)CC [LF11-322-C10] (Decanoyl-PFWRIRIRR-NH2)
unit of measurement: mg/dL
Free Hemoglobin, BLOOD, 8 μg/mL: 2.5

====

Test system: erythrocyte membranes
run description: Hemolysis in whole blood (Kahn method)
Format: cell-based, human
Procedure: Hemolysis was tested with fresh citrate anticoagulated blood from healthy volunteers as well as with blood cells which were suspended in phosphate buffered saline (10 mM pH 7.4). Afterwards, 100 μL AMP solution was added to 500 μL blood to finally achieve AMP concentrations of 8, 32, and 128 μg/mL. […] The hemolysis was calculated from the extinction at the wavelengths 562, 578, and 598 nm with a Synergy 2 microplate reader (BioTek, Winooski, VT, USA) according to the method published by Kahn.
Peptide text beside a SMILES is read from it. * marks the point of attachment. Lauroyl = CCCCCCCCCCCC(=O)*
parameter: Free Hemoglobin, BLOOD, 32 μg/mL

molecule: CCCCCCCCCCCC(=O)N[C@@H](Cc1ccccc1)C(=O)N[C@@H](Cc1c[nH]c2ccccc12)C(=O)N[C@@H](CCCNC(=N)N)C(=O)N[C@@H](CCCNC(=N)N)C(=O)N[C@@H](Cc1ccccc1)C(=O)N[C@@H](Cc1c[nH]c2ccccc12)C(=O)N[C@@H](CCCNC(=N)N)C(=O)N[C@@H](CCCNC(=N)N)C(N)=O [LF11-227-C12] (Lauroyl-FWRRFWRR-NH2)
result: 4.3 ± 2.5 mg/dL

====

Test system: erythrocyte membranes
run description: Hemolysis in whole blood (Kahn method)
Assay type: cell-based, human
Peptide text beside a SMILES is read from it. * marks the point of attachment. Myristoyl = CCCCCCCCCCCCCC(=O)*; Decanoyl = CCCCCCCCCC(=O)*; Octanoyl = CCCCCCCC(=O)*
parameter: Free Hemoglobin, BLOOD, 32 μg/mL (mg/dL)

compound: CCCCCCCCCC(=O)N1CCC[C@H]1C(=O)N[C@@H](Cc1ccccc1)C(=O)N[C@@H](Cc1c[nH]c2ccccc12)C(=O)N[C@@H](CCCNC(=N)N)C(=O)N[C@H](C(=O)N[C@@H](CCCNC(=N)N)C(=O)N[C@H](C(=O)N[C@@H](CCCNC(=N)N)C(=O)N[C@@H](CCCNC(=N)N)C(N)=O)[C@@H](C)CC)[C@@H](C)CC [LF11-322-C10] (Decanoyl-PFWRIRIRR-NH2)
subject of test: erythrocyte membranes
numeric value: 6.0
//
compound: CCCCCCCC(=O)N1CCC[C@H]1C(=O)N[C@@H](Cc1ccccc1)C(=O)N[C@@H](Cc1c[nH]c2ccccc12)C(=O)N[C@@H](CCCNC(=N)N)C(=O)N[C@H](C(=O)N[C@@H](CCCNC(=N)N)C(=O)N[C@H](C(=O)N[C@@H](CCCNC(=N)N)C(=O)N[C@@H](CCCNC(=N)N)C(N)=O)[C@@H](C)CC)[C@@H](C)CC [LF11-322-C8] (Octanoyl-PFWRIRIRR-NH2)
subject of test: erythrocyte membranes
numeric value: 9.0
//
compound: CCCCCCCC(=O)N[C@@H](Cc1ccccc1)C(=O)N[C@@H](Cc1c[nH]c2ccccc12)C(=O)N[C@@H](CCCNC(=N)N)C(=O)N[C@@H](CCCNC(=N)N)C(=O)N[C@@H](Cc1ccccc1)C(=O)N[C@@H](Cc1c[nH]c2ccccc12)C(=O)N[C@@H](CCCNC(=N)N)C(=O)N[C@@H](CCCNC(=N)N)C(N)=O [LF11-227-C8] (Octanoyl-FWRRFWRR-NH2)
subject of test: erythrocyte membranes
numeric value: 10.5
//
compound: CCCCCCCCCCCCCC(=O)N[C@@H](Cc1ccccc1)C(=O)N[C@@H](Cc1c[nH]c2ccccc12)C(=O)N[C@@H](CCCNC(=N)N)C(=O)N[C@@H](CCCNC(=N)N)C(=O)N[C@@H](Cc1ccccc1)C(=O)N[C@@H](Cc1c[nH]c2ccccc12)C(=O)N[C@@H](CCCNC(=N)N)C(=O)N[C@@H](CCCNC(=N)N)C(N)=O [LF11-227-C14] (Myristoyl-FWRRFWRR-NH2)
subject of test: erythrocyte membranes
numeric value: 3.1

====

Tested on: erythrocyte membranes
run description: Hemolysis in whole blood (Kahn method)
Format: cell-based, human
Peptide text beside a SMILES is read from it. * marks the point of attachment. Myristoyl = CCCCCCCCCCCCCC(=O)*

compound: CCCCCCCCCCCCCC(=O)N[C@@H](Cc1ccccc1)C(=O)N[C@@H](Cc1c[nH]c2ccccc12)C(=O)N[C@@H](CCCNC(=N)N)C(=O)N[C@@H](CCCNC(=N)N)C(=O)N[C@@H](Cc1ccccc1)C(=O)N[C@@H](Cc1c[nH]c2ccccc12)C(=O)N[C@@H](CCCNC(=N)N)C(=O)N[C@@H](CCCNC(=N)N)C(N)=O [LF11-227-C14] (Myristoyl-FWRRFWRR-NH2)
subject of test: erythrocyte membranes
Free Hemoglobin, BLOOD, 8 μg/mL / mg/dL: 3.4

====

System: erythrocyte membranes
run description: Hemolysis in RBC suspended in PBS (Kahn method)
Assay type: cell-based, human
assay setup: pH 7.4
Protocol: Hemolysis was tested with fresh citrate anticoagulated blood from healthy volunteers as well as with blood cells which were suspended in phosphate buffered saline (10 mM pH 7.4). Afterwards, 100 μL AMP solution was added to 500 μL blood to finally achieve AMP concentrations of 8, 32, and 128 μg/mL. […] The hemolysis was calculated from the extinction at the wavelengths 562, 578, and 598 nm with a Synergy 2 microplate reader (BioTek, Winooski, VT, USA) according to the method published by Kahn.
Peptide text beside a SMILES is read from it. * marks the point of attachment. Myristoyl = CCCCCCCCCCCCCC(=O)*
parameter: Free Hemoglobin, RBC in PBS, 8 μg/mL (mg/dL)

compound: CCCCCCCCCCCCCC(=O)N1CCC[C@H]1C(=O)N[C@@H](Cc1ccccc1)C(=O)N[C@@H](Cc1c[nH]c2ccccc12)C(=O)N[C@@H](CCCNC(=N)N)C(=O)N[C@H](C(=O)N[C@@H](CCCNC(=N)N)C(=O)N[C@H](C(=O)N[C@@H](CCCNC(=N)N)C(=O)N[C@@H](CCCNC(=N)N)C(N)=O)[C@@H](C)CC)[C@@H](C)CC [LF11-322-C14] (Myristoyl-PFWRIRIRR-NH2)
parameter: Free Hemoglobin, RBC in PBS, 8 μg/mL
numeric value: 12.9
